Data provenance is patent US4543349A.

Measured target: vasopressin receptors (V2 -receptors) (Sus scrofa)
Construct: from tissue; host or cells: hog kidney medullary membranes
Sequence (P32307 whole entry): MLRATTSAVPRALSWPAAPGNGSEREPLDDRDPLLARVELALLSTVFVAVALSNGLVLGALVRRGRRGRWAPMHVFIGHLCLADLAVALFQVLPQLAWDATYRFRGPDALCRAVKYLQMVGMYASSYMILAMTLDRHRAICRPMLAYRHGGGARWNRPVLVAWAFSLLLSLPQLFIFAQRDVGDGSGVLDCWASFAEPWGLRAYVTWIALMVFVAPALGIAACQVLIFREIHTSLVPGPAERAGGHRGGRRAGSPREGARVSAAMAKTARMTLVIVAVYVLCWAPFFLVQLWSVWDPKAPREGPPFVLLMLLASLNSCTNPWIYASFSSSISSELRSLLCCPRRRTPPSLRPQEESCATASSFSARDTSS
Procedure details: 3H-vasopressin binding assay, hog kidney medullary membranes
Experimental context: competitive inhibition of 3H-vasopressin binding, read-out: Swine KB
Starred links: 1 amine or outer side, 2 acyl side, 3 side chain; linkers in the order of their positions; H or OH if unused. Positions of bridges follow the written chain, without caps; N, C: chain ends. Non-standard residues stand in square brackets, D forms with d. Residues, ends and D or L forms follow the SMILES beside them. *: point of attachment. X1 = O=C(CC1(S[*:2])CCCCC1)[*:1]; Agmatine = N=C(N)NCCCCN*; NH(CH2)4NH2 = NCCCCN*
Provide the recorded Kb for the entries that follow.
Field: numeric (nM). Do not append units.

input: Tell me the measured Kb of CC(C)[C@@H]1NC(=O)[C@H](Cc2ccccc2)NC(=O)[C@@H](Cc2ccc(O)cc2)NC(=O)CC2(CCCCC2)SSC[C@@H](C(=O)N2CCC[C@H]2C(=O)NCCCCCN)NC(=O)[C@H](CC(N)=O)NC1=O [A] (HELM PEPTIDE1{[dY].F.V.N.C.P.[NCCCCCN[*:1]]}|CHEM1{[O=C(CC1(S[*:2])CCCCC1)[*:1]]}$PEPTIDE1,CHEM1,1:R1-1:R1|PEPTIDE1,CHEM1,5:R3-1:R2$$$V2.0) , please.
output: 220

input: Tell me the measured Kb of CCOc1ccc(C[C@H]2NC(=O)CC3(CCCCC3)SSC[C@@H](C(=O)NCCCCCN)NC(=O)[C@H](CC(N)=O)NC(=O)[C@H](C(C)C)NC(=O)[C@H](Cc3ccccc3)NC2=O)cc1 [F] , please.
output: 19

input: Tell me the measured Kb of CCOc1ccc(C[C@H]2NC(=O)CC3(CCCCC3)SSC[C@@H](C(=O)N3CCC[C@H]3C(=O)NCCCCN)NC(=O)[C@H](CC(N)=O)NC(=O)[C@H](C(C)C)NC(=O)[C@H](Cc3ccccc3)NC2=O)cc1 [C] ([dY](Et)FVNCP-{NH(CH2)4NH2}; linker N-5 via X1) , please.
output: 9.2

input: Tell me the measured Kb of CC(C)[C@@H]1NC(=O)[C@H](Cc2ccccc2)NC(=O)[C@@H](Cc2ccc(O)cc2)NC(=O)CC2(CCCCC2)SSC[C@@H](C(=O)N2CCC[C@H]2C(=O)O)NC(=O)[C@H](CC(N)=O)NC1=O [E] (HELM PEPTIDE1{[dY].F.V.N.C.P}|CHEM1{[O=C(CC1(S[*:2])CCCCC1)[*:1]]}$PEPTIDE1,CHEM1,1:R1-1:R1|PEPTIDE1,CHEM1,5:R3-1:R2$$$V2.0) , please.
output: 17000

input: Tell me the measured Kb of CCOc1ccc(C[C@H]2NC(=O)CC3(CCCCC3)SSC[C@@H](C(=O)N3CCC[C@H]3C(=O)NCCCCN=C(N)N)NC(=O)[C@H](CC(N)=O)NC(=O)[C@H](C(C)C)NC(=O)[C@H](Cc3ccccc3)NC2=O)cc1 [G] ([dY](Et)FVNCP-Agmatine; linker N-5 via X1) , please.
output: 14

----------
Provide the recorded Kb for the entries that follow.
Measured target: vasopressin receptors (V2 -receptors) (Sus scrofa)
Construct: from tissue; host or cells: hog kidney medullary membranes
Procedure details: 3H-vasopressin binding assay, hog kidney medullary membranes
Experimental context: competitive inhibition of 3H-vasopressin binding, read-out: Swine KB
Starred links: 1 amine or outer side, 2 acyl side, 3 side chain; linkers in the order of their positions; H or OH if unused. Positions of bridges follow the written chain, without caps; N, C: chain ends. Non-standard residues stand in square brackets, D forms with d. Residues, ends and D or L forms follow the SMILES beside them. *: point of attachment. X1 = O=C(CC1(S[*:2])CCCCC1)[*:1]; NH(CH2)5NH2 = NCCCCCN*
Field: numeric (nM). Do not append units.

input: Tell me the measured Kb of CCOc1ccc(C[C@H]2NC(=O)CC3(CCCCC3)SSC[C@@H](C(=O)N3CCC[C@H]3C(=O)NCCCCCN)NC(=O)[C@H](CC(N)=O)NC(=O)[C@H](C(C)C)NC(=O)[C@H](Cc3ccccc3)NC2=O)cc1 [B] ([dY](Et)FVNCP-{NH(CH2)5NH2}; linker N-5 via X1) , please.
output: 29

input: Tell me the measured Kb of CCOc1ccc(C[C@H]2NC(=O)CC3(CCCCC3)SSC[C@@H](C(=O)N3CCC[C@H]3C(=O)O)NC(=O)[C@H](CC(N)=O)NC(=O)[C@H](C(C)C)NC(=O)[C@H](Cc3ccccc3)NC2=O)cc1 [D] ([dY](Et)FVNCP-OH; linker N-5 via X1) , please.
output: 410
